Quick note: these are AC50 numbers for system: Kappa-type opioid receptor (Homo sapiens, UniProt P41145); note: assay procedure not described here
Sequence (P41145 whole entry): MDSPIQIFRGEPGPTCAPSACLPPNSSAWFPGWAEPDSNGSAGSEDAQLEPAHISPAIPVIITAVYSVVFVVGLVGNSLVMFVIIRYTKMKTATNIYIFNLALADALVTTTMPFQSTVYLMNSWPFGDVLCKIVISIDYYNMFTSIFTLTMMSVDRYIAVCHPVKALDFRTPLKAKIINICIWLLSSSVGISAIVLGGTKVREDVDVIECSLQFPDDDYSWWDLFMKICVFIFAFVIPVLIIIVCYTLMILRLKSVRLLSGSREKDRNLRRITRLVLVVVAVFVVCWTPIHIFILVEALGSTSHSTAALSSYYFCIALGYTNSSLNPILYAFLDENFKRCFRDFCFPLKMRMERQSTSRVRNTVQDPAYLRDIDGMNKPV

Record excerpt, results attached:
COMPOUND	VALUE REPORTED
CN[C@@H]1[C@H](O)[C@H](NC)[C@H]2O[C@@]3(O)C(=O)C[C@@H](C)O[C@H]3O[C@@H]2[C@H]1O	> 10 µM
O=C(Nc1ccccc1)OCC(CN1CCCCC1)OC(=O)Nc1ccccc1 (configuration not stated)	1.42 µM
CN1CC[C@]23CCCC[C@H]2[C@H]1Cc1ccc(O)cc13	5.85 µM
NC[C@H]1CC[C@H](C(=O)O)CC1	> 10 µM
Nc1ccc(/N=N/c2ccccc2)c(N)n1	3.3 µM

// below: AC50 requested for another compound
State recorded AC50 with Kappa-type opioid receptor (Homo sapiens, UniProt P41145), entry C[C@H]1O[C@H](O[C@H]2[C@H](O)[C@@H](O)[C@@H](O[C@H]3[C@H](O)[C@@H](O)C(O)O[C@@H]3CO)O[C@@H]2CO)[C@H](O)[C@@H](O)[C@@H]1N[C@H]1C=C(CO)[C@@H](O)[C@H](O)[C@H]1O (some centres not stated) , no comment.
> 10 µM

* * *

Biological target: Prothrombin (Homo sapiens, UniProt P00734); note: assay procedure not described here
Assay type: functional
Overview of recorded AC50 for various compounds

>>> df
                                   compound                               test_target  value_reported
0  O=C(O)CCCN1CCC(O[C@@H](c2ccc(Cl)cc2)c2ccccn2)CC1  Prothrombin (Homo sapiens, UniProt P00734)         > 30 µM

Could you please provide reported AC50 for CC(C)Cc1ccc(C(C)C(=O)NO)cc1 (centres undefined) ? Thanks!
> 30 µM

Please report AC50 for the following compound: CCOC(=O)C(c1c(O)c2ccccc2oc1=O)c1c(O)c2ccccc2oc1=O [ETHYL BISCOUMACETATE]
> 30 µM

Tell me measured AC50 for C[C@@H]1C[C@H]2[C@@H]3CCC4=CC(=O)C=C[C@]4(C)[C@@]3(F)[C@@H](O)C[C@]2(C)[C@H]1C(=O)CO please.
> 30 µM

* * *

# AC50 per entry for Glucocorticoid receptor (Homo sapiens)

Sample answers from the record:
MOLECULE	TEST TARGET	AC50
Cc1c(C(=O)Nc2ccc(N3C[C@@H](C)O[C@@H](C)C3)nc2)cccc1-c1ccc(OC(F)(F)F)cc1	Glucocorticoid receptor (Homo sapiens)	> 30 µM
CCCCCN(C)CCC(O)(P(=O)(O)O)P(=O)(O)O	Glucocorticoid receptor (Homo sapiens)	> 30 µM
CN(C/C=C/c1ccccc1)Cc1cccc2ccccc12	Glucocorticoid receptor (Homo sapiens)	> 30 µM
O=C(O)CCCc1ccccc1	Glucocorticoid receptor (Homo sapiens)	> 30 µM
COC(=O)C1=C(C)NC(C)=C(C(=O)OC(C)C)C1c1cccc2nonc12 (centres undefined)	Glucocorticoid receptor (Homo sapiens)	15.1 µM

Given CCCCC(C)(O)C/C=C/[C@H]1[C@H](O)CC(=O)[C@@H]1CCCCCCC(=O)OC (some centres undefined) , respond with its AC50.
> 30 µM

Fill in AC50 for record NC[C@H]1O[C@H](O[C@H]2[C@H](O)[C@@H](O[C@H]3O[C@H](CO)[C@@H](O)[C@H](N)[C@H]3O)[C@H](N)C[C@@H]2N)[C@H](O)[C@@H](O)[C@@H]1O
> 10 µM

Please list AC50 recorded for the molecule CN(CCOc1ccc(NS(C)(=O)=O)cc1)CCc1ccc(NS(C)(=O)=O)cc1 [DOFETILIDE]
> 30 µM

Entry CCOC(=O)[C@H](CCc1ccccc1)N[C@@H](C)C(=O)N1CCC[C@H]1C(=O)O needs its AC50 filled in; supply it.
> 30 µM

* * *

Biological target: 5-hydroxytryptamine receptor 2B (Homo sapiens); note: assay procedure not described here
Sequence (P41595 whole entry): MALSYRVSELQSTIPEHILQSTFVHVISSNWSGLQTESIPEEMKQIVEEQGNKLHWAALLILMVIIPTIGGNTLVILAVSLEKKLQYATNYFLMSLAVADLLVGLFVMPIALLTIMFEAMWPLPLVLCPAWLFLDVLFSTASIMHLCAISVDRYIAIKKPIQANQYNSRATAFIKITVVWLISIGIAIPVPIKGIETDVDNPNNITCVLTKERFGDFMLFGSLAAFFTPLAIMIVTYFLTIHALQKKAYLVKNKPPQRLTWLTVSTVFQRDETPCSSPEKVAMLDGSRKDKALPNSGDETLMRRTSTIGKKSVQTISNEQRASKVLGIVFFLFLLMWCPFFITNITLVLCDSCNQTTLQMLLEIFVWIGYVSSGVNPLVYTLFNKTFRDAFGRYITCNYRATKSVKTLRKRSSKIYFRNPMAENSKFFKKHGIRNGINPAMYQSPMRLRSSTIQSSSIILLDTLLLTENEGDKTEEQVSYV
Type: functional, cell-based
Overview of recorded AC50 for various molecules

Some entries whose results are on file:
In [3]: df
Out[3]:
                                   molecule  measurement_label  value_reported
0                NC[C@H]1CC[C@H](C(=O)O)CC1               AC50         > 10 µM
1  CN1CC(=O)N2[C@H](c3ccc4c(c3)OCO4)c3[nH]c4ccccc4c3C[C@@H]2C1=O               AC50         > 10 µM
2                  C1COC(NC(C2CC2)C2CC2)=N1               AC50         > 10 µM
3     CN1CCc2cccc3c2[C@H]1Cc1ccc(O)c(O)c1-3               AC50          4.7 µM

Let us move to another entry and its AC50.
# return recorded AC50 for input C#CC1(OC(N)=O)CCCCC1 [ETHINAMATE]
> 10 µM

* * *

Reported AC50 values follow for various compounds
Molecular target: Cannabinoid receptor 1 (Homo sapiens, UniProt P21554); note: assay procedure not described here
Sequence (P21554 whole entry): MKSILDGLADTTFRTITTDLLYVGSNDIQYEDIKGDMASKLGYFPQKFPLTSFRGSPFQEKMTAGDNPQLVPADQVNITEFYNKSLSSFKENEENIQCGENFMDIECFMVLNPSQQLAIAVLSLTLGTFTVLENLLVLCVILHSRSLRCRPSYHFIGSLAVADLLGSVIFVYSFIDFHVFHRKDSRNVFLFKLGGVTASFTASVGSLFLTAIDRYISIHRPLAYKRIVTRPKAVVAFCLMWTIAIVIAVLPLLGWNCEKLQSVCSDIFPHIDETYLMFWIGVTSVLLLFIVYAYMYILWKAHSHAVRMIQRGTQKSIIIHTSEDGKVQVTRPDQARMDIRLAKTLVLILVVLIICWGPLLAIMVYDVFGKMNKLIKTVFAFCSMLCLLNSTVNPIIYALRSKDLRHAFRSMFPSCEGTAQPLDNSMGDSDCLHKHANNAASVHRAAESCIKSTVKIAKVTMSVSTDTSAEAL
Assay type: functional, cell-based

Example results:
In [3]: df
Out[3]:
                                   compound  value_reported
0         CN(C/C=C/c1ccccc1)Cc1cccc2ccccc12         > 30 µM
1  CC(C(=O)O)c1ccc(N2CC=CC2)c(Cl)c1 (stereo not drawn)         > 30 µM
2  CNC(=O)c1cc(Oc2ccc(NC(=O)Nc3ccc(Cl)c(C(F)(F)F)c3)cc2)ccn1         > 30 µM
3      CCCCOc1cc(C(=O)NCCN(CC)CC)c2ccccc2n1         > 30 µM

Read off the recorded AC50 for O=C(Cn1ccnc1[N+](=O)[O-])NCc1ccccc1
> 30 µM

Input CO/N=C(\C(=O)N[C@@H]1C(=O)N2C(C(=O)OCOC(=O)C(C)(C)C)=C(C)CS[C@H]12)c1csc(N)n1 , output reported AC50.
> 30 µM

Indicate its recorded AC50; the compound in question is CN1CCc2cccc3c2[C@H]1Cc1ccc(O)c(O)c1-3
> 30 µM

Report AC50, nothing else, for this compound: CCCS(=O)(=O)Nc1ccc(F)c(C(=O)c2c[nH]c3ncc(-c4ccc(Cl)cc4)cc23)c1F
> 30 µM

* * *

Molecular target: UniProt:P41595
Assay type: functional, cell-based
Reported AC50 values for a set of compounds

Would you please look over these solved cases?
COMPOUND	AC50
OCCN1CCN(CCCN2c3ccccc3C=Cc3ccccc32)CC1 [OPIPRAMOL]	> 30 µM
COC(=O)C1=C(C)NC(C)=C(C(=O)OC)C1c1ccccc1[N+](=O)[O-] [NIFEDIPINE]	6.8 µM
COC(=O)N[C@H](C(=O)N[C@@H](Cc1ccccc1)[C@@H](O)CN(Cc1ccc(-c2ccccn2)cc1)NC(=O)[C@@H](NC(=O)OC)C(C)(C)C)C(C)(C)C [ATAZANAVIR]	> 10 µM

Return AC50 (reported value) for this compound: Cc1c(O)c(=O)ccn1C [DEFERIPRONE]
> 30 µM

Give the reported value of AC50 for this record: CC(N)Cc1ccccc1 (centres undefined) [AMPHETAMINE]
> 30 µM

* * *

// endpoint AC50 / system Histamine H3 receptor (Homo sapiens, UniProt Q9Y5N1); note: assay procedure not described here

Use the examples below as a reference point.
COMPOUND	VALUE REPORTED
O=C(O)c1cccc(-c2noc(-c3ccccc3F)n2)c1	> 30 µM
CC(N/C(=N\C#N)Nc1ccncc1)C(C)(C)C (stereo unspecified) [PINACIDIL ANHYDROUS]	> 10 µM
C[N+]1(C)[C@@H]2C[C@@H](OC(=O)[C@H](CO)c3ccccc3)C[C@H]1[C@@H]1O[C@@H]12	> 30 µM
O=C(NC1CCN(CCCCC2(C(=O)NCC(F)(F)F)c3ccccc3-c3ccccc32)CC1)c1ccccc1-c1ccc(C(F)(F)F)cc1 [LOMITAPIDE]	> 30 µM
COc1cc(NCc2ccc3nc(N)nc(N)c3c2C)cc(OC)c1OC [TRIMETREXATE]	> 30 µM

Fill in reported AC50 for this entry: CC(O)CO (stereo unspecified)
> 30 µM

Answer with reported AC50 of COc1cc2c(cc1OC)C(=O)C(CC1CCN(Cc3ccccc3)CC1)C2 (stereo unspecified)
5.2 µM

Give reported AC50 value for CC[C@@H]1/C=C(\C)C[C@H](C)C[C@H](OC)[C@H]2O[C@@](O)(C(=O)C(=O)N3CCCC[C@H]3C(=O)O[C@H](/C(C)=C/[C@@H]3CC[C@H](Cl)[C@H](OC)C3)[C@H](C)[C@@H](O)CC1=O)[C@H](C)C[C@@H]2OC
> 30 µM

Indicate its recorded AC50; the compound in question is O=C(COc1ccc(Cl)cc1)N1CCN(Cc2ccc3c(c2)OCO3)CC1 [FIPEXIDE]
> 30 µM

Annotate the compound O=C(Cn1ccnc1[N+](=O)[O-])NCc1ccccc1 with its measured AC50.
> 30 µM

For the compound Cn1cc[nH]c1=S , give its reported AC50.
> 30 µM

Report AC50 for CN(Cc1cc(Br)cc(Br)c1N)C1CCCCC1
> 30 µM

Specify AC50 for CCOC(=O)C(c1c(O)c2ccccc2oc1=O)c1c(O)c2ccccc2oc1=O [ETHYL BISCOUMACETATE] and stop.
> 30 µM

Entry source: ChEMBL document CHEMBL5291721
